target.under.test: T1, human chemokine (C-C motif) receptor 8 (CCR8) (human, UniProt P51685 1-355)
T1 construct: On human peripheral blood lymphocytes / PBMC (native) or on human CCR8 GFP-transfected Ba/F3 cells; also called hCCR8; human CCR8
experiment: flow cytometry blocking, PBMC CCR8+ CD4+ cells; competitor PE-AB15 (its MFI is read)
measurement.name: % Blocking (%)
Your answer should be a plain number; it is taken to be in %.

Examples from the recorded data:
- binder: "AB5 (antibody, V domains shown, Hybridoma monoclonal; also called antibody 5; clone 5) VH: QVQLKESGPGLVQPSQTLSLTCTVSGFSLTSYHVSWVRQPPGKGLEWMGVIWTGGSTTYNSLLKSRLSISRDISKSQVFLKMNSLQTEDTATYYCARGGTVVKGGFAYWGQGTLVTVSS VL: DIQMTQSPASLSASLEEIVTITCQASQDIGNRLSWYQQKPGKSPQLLIYGATSLADGVPSRFSGSRSGTQYSLKISRLQVEDIGIYYCLQAYSTPLTFGSGTKLEIK"
  measurement.units: "%"
  % Blocking: -6.62
- binder: "AB11 (antibody, V domains shown, Hybridoma monoclonal; also called antibody 11; clone 11) VH: EVQLVESGGGLVQPKGSLKLSCAASGFAFNTYAMNWVRQAPGKGLEWIARLRSKSNFYATYYADSVKDRFTISRDDSQSMLYLQMNNLKTEDTAVYYCVRGRELGPSYAMDYWGQGTSVTVSS VL: DIVMTQAAPSVPVTPGESVSISCRSSKSLLHSNGNTYLYWFLQRPGQSPQLLIYRMSNLASGVPDRFSGSGSGTAFTLRISRVEAEDVGVYYCMQHLEYPYTFGGGTKLEIK"
  measurement.units: "%"
  % Blocking: -75.1

Continue with the next binder.
Query block: What value of % Blocking has been recorded for this entry: AB4 (antibody, V domains shown, Hybridoma monoclonal; also called antibody 4; clone 4) VH: QVQLKESGPGLVKPSETLSLTCTVSGFSLTGYHVSWVRQPPGKGLEWMGVIWGDGRTTYNSALKSRLSISRDTSKSQVFLKMSSLKTEDTATYYCARGGDSGFAYWGQGTLVTVSS VL: DIQMTQSPASLSASLEEIVTITCQASQDIGNWLSWYQQKPGKSPQLLIYGATSLADGVPSRFSGSRSGTQFSLKISRLQVEDIGIYYCLQAYIVPLTFGSGTKLESK
Result block: -7.83
